experiment: Quantitative High-Throughput drug screen in 47 multiple myeloma cell lines against the NCATS MIPE library collection: EJM_DSMZ cell viability assay (AID 1918926; also: nearly all actives have a fitted effect of over 30% in size); conditions: EJM myeloma cell viability, CellTiter-Glo ATP, 48 h; series mostly up to 45.8 µM
Results filed as inconclusive are left out. Activity calls are given as the source filed them. Calls follow the shape of the dose curve; as a rule, active = well fitted cell-killing curve with a large enough effect; inconclusive = small, poorly fitted or top-dose-only effect, or effect the other way; inactive = no such curve, though single readings can be large or run the other way.
Use one of these outcomes when replying: t = active, f = inactive

Solved entries (count: 4):
COc1cccc(-c2ccc(NC(=O)C3=C(C(=O)O)CCC3)c(F)c2)c1	f
Cc1ccc2nc(NC(=O)CSc3nc4c(c(=O)n3-c3ccccc3)SCC4)sc2c1	t
COCCn1c2c([n+](Cc3cnccn3)c1C)C(=O)c1ccccc1C2=O	t
CCS(=O)(=O)c1cccc(-c2cc(C(=O)NC3CCN(C)CC3)c(C)c3[nH]c4ncc(C)cc4c23)c1	t

Task item: Test call, this compound: CC(C)c1nn(-c2c(Cl)cccc2Cl)c2nc(Cc3ccc(OCCO)cc3)[nH]c(=O)c12
Reply: t

Task item: Which outcome was assigned to CN1CCN(Cc2ccc(NC(=O)Nc3ccc(Oc4cc(NC(=O)C5CC5)ncn4)cc3)cc2C(F)(F)F)CC1 in this test?
Reply: t

Task item: Just curious, what result did CCCCN1CCC(CNC(=O)c2c3n(c4ccccc24)CCCO3)CC1 get here?
Reply: t

Task item: How did this test come out for C[C@@]12O[C@@H](C[C@]1(O)CO)n1c3ccccc3c3c4c(c5c6ccccc6n2c5c31)CNC4=O ?
Reply: t

Task item: Any idea what this test logged for Clc1cccc(-n2nnnc2NCc2ccccc2Oc2ccccn2)c1Cl ?
Reply: f

Task item: Dear all, I need the recorded test outcome for Nc1nccc(Oc2ccc(NC(=O)c3c[nH]cc(-c4ccc(F)cc4)c3=O)cc2F)c1Cl , thank you.
Reply: t

Task item: // param item: Nc1nc(NCCNc2ncc(-n3ccnc3)c(-c3ccc(Cl)cc3Cl)n2)ccc1[N+](=O)[O-] ; yields the recorded call
Reply: t

Task item: Recorded test call requested for C[C@H]1C[C@@H]2[C@@H]([C@@H](O)C[C@@]3(C)[C@H]2CC[C@]3(O)C(=O)CO)[C@@]2(C)C=CC(=O)C=C12
Reply: f
